Values were extracted from patent US9315543B2.

Task for the reader: assign each of the following compounds its reported % cleaved pH 7.4, 6 h.
# Assay: Cleavage kinetics (stability) of tyrosine based linker derivatives in buffer at pH 4 and pH 7.4, HPLC
# Format: physicochemical
# Test settings: pH 7.4 buffer/acetonitrile, room temperature, 6 h, HPLC peak area
One number for each entry, in %.

>>> assay_result("N[C@@H](Cc1ccc(OC(=O)NCC[C@H](N)C(=O)N[C@@H](CSC2CC(=O)N(Cc3ccccc3)C2=O)C(=O)Nc2ccccc2)cc1)C(=O)Nc1ccccc1 (stereo partly drawn) [Example 12C]")
29
>>> assay_result("NC(=O)[C@H](CSC1CC(=O)N(Cc2ccccc2)C1=O)NC(=O)CNC(=O)[C@@H](N)CCNC(=O)Oc1ccc(C[C@H](N)C(=O)Nc2ccccc2)cc1 (stereo partly drawn)")
6
>>> assay_result("NC(=O)[C@H](CSC1CC(=O)N(Cc2ccccc2)C1=O)NC(=O)CCCCCNC(=O)[C@@H](N)CCNC(=O)Oc1ccc(C[C@H](N)C(=O)Nc2ccccc2)cc1 (stereo partly drawn)")
7
>>> assay_result("N[C@@H](CCNC(=O)Oc1ccc(C[C@H](N)C(=O)Nc2ccccc2)cc1)C(=O)NCCOCCOCCOCCn1cc(-c2ccccc2)nn1 [Example 10Cb]")
4
>>> assay_result("N[C@@H](CCNC(=O)Oc1ccc(C[C@H](N)C(=O)Nc2ccccc2)cc1)C(=O)NCCSC1CC(=O)N(Cc2ccccc2)C1=O (stereo partly drawn)")
6

Proceeding to the next compound to report its % cleaved pH 7.4, 6 h.
Measured % cleaved pH 7.4, 6 h of NC(=O)[C@H](CSC1CC(=O)N(Cc2ccccc2)C1=O)NC(=O)[C@@H](N)CCNC(=O)Oc1ccc(C[C@H](N)C(=O)Nc2ccccc2)cc1 (stereo partly drawn) : 7

----------
# Assay: Cleavage kinetics (stability) of tyrosine based linker derivatives in buffer at pH 4 and pH 7.4, HPLC
# Format: physicochemical
# Test settings: pH 4 solution/acetonitrile, room temperature, 24 h, HPLC peak area
Task for the reader: assign each of the following molecules its reported % cleaved pH 4, 24 h.
One number for each entry, in %.

Here is how some molecules turned out for % cleaved pH 4, 24 h.
>>> assay_result("N[C@@H](Cc1ccc(OC(=O)NCC[C@H](N)C(=O)N[C@@H](CSC2CC(=O)N(Cc3ccccc3)C2=O)C(=O)Nc2ccccc2)cc1)C(=O)Nc1ccccc1 (some centres unmarked) [Example 12C]")
0
>>> assay_result("N[C@@H](CCNC(=O)Oc1ccc(C[C@H](N)C(=O)Nc2ccccc2)cc1)C(=O)NCCOCCOCCOCCn1cc(-c2ccccc2)nn1 [Example 10Cb]")
0
>>> assay_result("N[C@@H](CCNC(=O)Oc1ccc(C[C@H](N)C(=O)Nc2ccccc2)cc1)C(=O)NCCSC1CC(=O)N(Cc2ccccc2)C1=O (some centres unmarked) [Example 6C]")
0

Lab note: each molecule below needs its % cleaved pH 4, 24 h filled in.
1. NC(=O)CNC(=O)[C@H](CSC1CC(=O)N(Cc2ccccc2)C1=O)NC(=O)[C@@H](N)CCNC(=O)Oc1ccc(C[C@H](N)C(=O)Nc2ccccc2)cc1 (some centres unmarked) [Example 7C]
2. NCCC[C@H](NC(=O)Oc1ccc(C[C@H](N)C(=O)Nc2ccccc2)cc1)C(=O)N[C@@H](CSC1CC(=O)N(Cc2ccccc2)C1=O)C(N)=O (some centres unmarked) [Example 4C]
3. NC[C@H](NC(=O)Oc1ccc(C[C@H](N)C(=O)Nc2ccccc2)cc1)C(=O)N[C@@H](CSC1CC(=O)N(Cc2ccccc2)C1=O)C(N)=O (some centres unmarked) [Example 11C]
4. NC(=O)[C@H](CSC1CC(=O)N(Cc2ccccc2)C1=O)NC(=O)CCCCCNC(=O)[C@@H](N)CCNC(=O)Oc1ccc(C[C@H](N)C(=O)Nc2ccccc2)cc1 (some centres unmarked) [Example 9C]

Data returned:
0
0
19
0

Lab note: each molecule below needs its % cleaved pH 4, 24 h filled in.
1. NC(=O)[C@H](CSC1CC(=O)N(Cc2ccccc2)C1=O)NC(=O)CNC(=O)[C@@H](N)CCNC(=O)Oc1ccc(C[C@H](N)C(=O)Nc2ccccc2)cc1 (some centres unmarked) [Example 8C]
2. NCC[C@H](NC(=O)Oc1ccc(C[C@H](N)C(=O)Nc2ccccc2)cc1)C(=O)N[C@@H](CSC1CC(=O)N(Cc2ccccc2)C1=O)C(N)=O (some centres unmarked) [Example 5C]
3. NC(=O)[C@H](CSC1CC(=O)N(Cc2ccccc2)C1=O)NC(=O)[C@@H](N)CCCNC(=O)Oc1ccc(C[C@H](N)C(=O)Nc2ccccc2)cc1 (some centres unmarked) [Example 3C]
4. NC(=O)[C@H](CSC1CC(=O)N(Cc2ccccc2)C1=O)NC(=O)[C@@H](N)CCNC(=O)Oc1ccc(C[C@H](N)C(=O)Nc2ccccc2)cc1 (some centres unmarked) [Example 1C]

Data returned:
1. 0
2. 0
3. 0
4. 1

----------
Task for the reader: assign each of the following compounds its reported % cleaved pH 7.4, 24 h.
# Assay: Cleavage kinetics (stability) of tyrosine based linker derivatives in buffer at pH 4 and pH 7.4, HPLC
# Type: physicochemical
# Test settings: pH 7.4 buffer/acetonitrile, room temperature, 24 h, HPLC peak area
Numbers only, in %.

>>> assay_result("NC(=O)CNC(=O)[C@H](CSC1CC(=O)N(Cc2ccccc2)C1=O)NC(=O)[C@@H](N)CCNC(=O)Oc1ccc(C[C@H](N)C(=O)Nc2ccccc2)cc1 (some centres unmarked) [Example 7C]")
23

Lab note: each compound below needs its % cleaved pH 7.4, 24 h filled in.
1. N[C@@H](CCNC(=O)Oc1ccc(C[C@H](N)C(=O)Nc2ccccc2)cc1)C(=O)NCCSC1CC(=O)N(Cc2ccccc2)C1=O (some centres unmarked) [Example 6C]
2. NC(=O)[C@H](CSC1CC(=O)N(Cc2ccccc2)C1=O)NC(=O)CNC(=O)[C@@H](N)CCNC(=O)Oc1ccc(C[C@H](N)C(=O)Nc2ccccc2)cc1 (some centres unmarked) [Example 8C]
3. NCCC[C@H](NC(=O)Oc1ccc(C[C@H](N)C(=O)Nc2ccccc2)cc1)C(=O)N[C@@H](CSC1CC(=O)N(Cc2ccccc2)C1=O)C(N)=O (some centres unmarked) [Example 4C]
4. NC(=O)[C@H](CSC1CC(=O)N(Cc2ccccc2)C1=O)NC(=O)[C@@H](N)CCCNC(=O)Oc1ccc(C[C@H](N)C(=O)Nc2ccccc2)cc1 (some centres unmarked) [Example 3C]

Data returned:
1. 20
2. 23
3. 65
4. 11

----------
# Assay: Cleavage kinetics (stability) of tyrosine based linker derivatives in buffer at pH 4 and pH 7.4, HPLC
# Format: physicochemical
# Test settings: pH 7.4 buffer/acetonitrile, room temperature, 0 h, HPLC peak area
Observable: % cleaved pH 7.4, 0 h (%)
One number for each entry, in %.

Lab note: each molecule below needs its % cleaved pH 7.4, 0 h filled in.
1. NC(=O)[C@H](CSC1CC(=O)N(Cc2ccccc2)C1=O)NC(=O)[C@@H](N)CCCNC(=O)Oc1ccc(C[C@H](N)C(=O)Nc2ccccc2)cc1 (some centres unmarked) [Example 3C]
2. N[C@@H](CCNC(=O)Oc1ccc(C[C@H](N)C(=O)Nc2ccccc2)cc1)C(=O)NCCOCCOCCOCCn1cc(-c2ccccc2)nn1 [Example 10Cb]
3. N[C@@H](CCNC(=O)Oc1ccc(C[C@H](N)C(=O)Nc2ccccc2)cc1)C(=O)NCCSC1CC(=O)N(Cc2ccccc2)C1=O (some centres unmarked) [Example 6C]
4. NC(=O)[C@H](CSC1CC(=O)N(Cc2ccccc2)C1=O)NC(=O)CNC(=O)[C@@H](N)CCNC(=O)Oc1ccc(C[C@H](N)C(=O)Nc2ccccc2)cc1 (some centres unmarked) [Example 8C]
5. NC[C@H](NC(=O)Oc1ccc(C[C@H](N)C(=O)Nc2ccccc2)cc1)C(=O)N[C@@H](CSC1CC(=O)N(Cc2ccccc2)C1=O)C(N)=O (some centres unmarked) [Example 11C]

Data returned:
[0, 0, 0, 0, 0]

Lab note: each molecule below needs its % cleaved pH 7.4, 0 h filled in.
1. NCC[C@H](NC(=O)Oc1ccc(C[C@H](N)C(=O)Nc2ccccc2)cc1)C(=O)N[C@@H](CSC1CC(=O)N(Cc2ccccc2)C1=O)C(N)=O (some centres unmarked) [Example 5C]
2. NCCC[C@H](NC(=O)Oc1ccc(C[C@H](N)C(=O)Nc2ccccc2)cc1)C(=O)N[C@@H](CSC1CC(=O)N(Cc2ccccc2)C1=O)C(N)=O (some centres unmarked) [Example 4C]
3. NC(=O)CNC(=O)[C@H](CSC1CC(=O)N(Cc2ccccc2)C1=O)NC(=O)[C@@H](N)CCNC(=O)Oc1ccc(C[C@H](N)C(=O)Nc2ccccc2)cc1 (some centres unmarked) [Example 7C]
4. NC(=O)[C@H](CSC1CC(=O)N(Cc2ccccc2)C1=O)NC(=O)CCCCCNC(=O)[C@@H](N)CCNC(=O)Oc1ccc(C[C@H](N)C(=O)Nc2ccccc2)cc1 (some centres unmarked) [Example 9C]
5. N[C@@H](Cc1ccc(OC(=O)NCC[C@H](N)C(=O)N[C@@H](CSC2CC(=O)N(Cc3ccccc3)C2=O)C(=O)Nc2ccccc2)cc1)C(=O)Nc1ccccc1 (some centres unmarked) [Example 12C]
6. NC(=O)[C@H](CSC1CC(=O)N(Cc2ccccc2)C1=O)NC(=O)[C@@H](N)CCNC(=O)Oc1ccc(C[C@H](N)C(=O)Nc2ccccc2)cc1 (some centres unmarked) [Example 1C]

Data returned:
1: 0; 2: 0; 3: 0; 4: 0; 5: 0; 6: 0
